Reported percent monomer at 10 μM values for the following proteins.
# system under test: the molecule itself
# assay name: AUC

Below, 3 proteins whose answers are already recorded.
Per the records, this protein ( MBP-Vif(101–165) (domain or fragment) ELADQLIHLYYFDCFSDSAIRKALLGHIVSPRCEYQAGHNKVGSLQYLALAALITPKKIKPPLPS ) has percent monomer at 10 μM equal to < 30%

Per the records, this protein ( MBP-Vif(101–172) (domain or fragment) ELADQLIHLYYFDCFSDSAIRKALLGHIVSPRCEYQAGHNKVGSLQYLALAALITPKKIKPPLPSVTKLTED ) has percent monomer at 10 μM equal to < 30%

Per the records, this protein ( MBP-Vif(101–160) (domain or fragment) ELADQLIHLYYFDCFSDSAIRKALLGHIVSPRCEYQAGHNKVGSLQYLALAALITPKKIK ) has percent monomer at 10 μM equal to < 30%

Next up:
Per the records, this protein ( MBP-Vif(101–192) (domain or fragment) ELADQLIHLYYFDCFSDSAIRKALLGHIVSPRCEYQAGHNKVGSLQYLALAALITPKKIKPPLPSVTKLTEDRWNKPQKTKGHRGSHTMNGH ) has percent monomer at 10 μM equal to < 30%
